// data source = ChEMBL document CHEMBL1159083

measurement description: Half life in human microsomes
Format: ADME, Microsome
half-life values by entry

[
  {
    "structure string": "Cn1cnc(C(=O)N(Cc2ccc(F)c(OC3CCCC3)c2)[C@H]2C[C@H]3CNC[C@H]3C2)c1",
    "half-life": "> 1.85 h"
  },
  {
    "structure string": "Cn1cnc(C(=O)N(Cc2cccc(OC3CCCC3)c2)[C@H]2C[C@H]3CNC[C@H]3C2)c1",
    "half-life": "> 2 h"
  },
  {
    "structure string": "Cn1cnc(C(=O)N(Cc2ccc(F)c(C(F)(F)F)c2)[C@@H]2C[C@H]3CNC[C@H]3C2)c1",
    "half-life": "> 2 h"
  },
  {
    "structure string": "Cn1cnc(C(=O)N(Cc2cccc(OC(F)(F)F)c2)[C@@H]2C[C@@H]3CN(CCC(F)(F)F)C[C@@H]3C2)c1",
    "half-life": "< 0.0533 h"
  }
]
